Source: ChEMBL document CHEMBL2401712

biological target: Metabotropic glutamate receptor 5 (Homo sapiens, UniProt P41594); experiment: Positive allosteric modulation of human mGlu5 receptor expressed in HEK293 cells assessed as potentiation of L-glutamate-induced activity after 1 hr by FLIPR assay; format: cell-based
Sequence (P41594 whole entry): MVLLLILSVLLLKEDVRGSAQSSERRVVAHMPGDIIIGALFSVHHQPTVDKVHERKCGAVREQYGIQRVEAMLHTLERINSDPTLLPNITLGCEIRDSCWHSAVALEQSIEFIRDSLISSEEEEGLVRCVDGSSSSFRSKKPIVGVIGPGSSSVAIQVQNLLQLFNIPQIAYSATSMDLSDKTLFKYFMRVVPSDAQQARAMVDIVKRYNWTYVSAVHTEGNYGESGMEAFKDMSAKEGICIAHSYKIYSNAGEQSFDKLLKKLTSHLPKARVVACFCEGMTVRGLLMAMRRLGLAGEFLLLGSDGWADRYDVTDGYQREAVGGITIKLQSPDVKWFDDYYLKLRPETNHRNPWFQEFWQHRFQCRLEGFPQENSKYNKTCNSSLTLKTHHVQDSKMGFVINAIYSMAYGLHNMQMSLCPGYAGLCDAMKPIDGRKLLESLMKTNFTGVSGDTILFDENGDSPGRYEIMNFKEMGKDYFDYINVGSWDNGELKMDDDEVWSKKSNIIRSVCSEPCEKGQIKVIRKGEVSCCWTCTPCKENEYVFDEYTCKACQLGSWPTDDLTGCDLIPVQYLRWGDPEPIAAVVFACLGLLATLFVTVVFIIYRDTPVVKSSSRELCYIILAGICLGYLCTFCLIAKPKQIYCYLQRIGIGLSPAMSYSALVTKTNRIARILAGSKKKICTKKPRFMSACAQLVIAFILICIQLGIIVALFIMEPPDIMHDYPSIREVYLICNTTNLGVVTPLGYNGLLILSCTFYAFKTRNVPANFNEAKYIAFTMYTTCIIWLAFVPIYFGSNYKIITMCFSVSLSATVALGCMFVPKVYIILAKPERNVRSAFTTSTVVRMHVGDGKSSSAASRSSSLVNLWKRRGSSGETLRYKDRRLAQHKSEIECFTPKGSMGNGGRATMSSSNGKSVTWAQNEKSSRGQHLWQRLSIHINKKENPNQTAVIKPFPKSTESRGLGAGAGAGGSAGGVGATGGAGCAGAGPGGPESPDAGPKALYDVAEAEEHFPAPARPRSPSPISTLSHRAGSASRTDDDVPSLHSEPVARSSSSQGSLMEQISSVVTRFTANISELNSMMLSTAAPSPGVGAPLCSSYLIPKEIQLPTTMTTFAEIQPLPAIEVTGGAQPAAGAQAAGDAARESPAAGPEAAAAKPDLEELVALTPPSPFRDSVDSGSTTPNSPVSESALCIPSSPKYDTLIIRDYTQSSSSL
Task for the reader: assign each of the following compounds its reported pEC50.
Give bare numbers, as −log10 of the molar value.

>  <compound>
O=C1NCCc2nc(C#Cc3ccccc3F)sc21

>  <pEC50>
5.82

$$$$
>  <compound>
O=C1NCCc2nc(C#Cc3ccccc3)sc21

>  <pEC50>
6.95

$$$$
>  <compound>
CC1CC(C(=O)N2CCc3nc(C#Cc4ccccc4)sc3C2)C1 (configuration not stated)

>  <pEC50>
7.09

$$$$
>  <compound>
O=C(N1CCCC1)N1CCc2nc(C#Cc3ccccc3)sc2C1

>  <pEC50>
8.01

$$$$
>  <compound>
O=C(C1CCC(F)(F)CC1)N1CCc2nc(C#Cc3ccccc3)sc2C1

>  <pEC50>
7.15

$$$$
>  <compound>
O=C1NCCc2nc(C#Cc3cccnc3)sc21

>  <pEC50>
7.29

$$$$
>  <compound>
O=C(c1cccc(Cl)c1)N1CCc2nc(C#Cc3ccccc3)sc2C1

>  <pEC50>
8.06

$$$$

Task: Give pEC50 for this entry on Metabotropic glutamate receptor 5 (Homo sapiens, UniProt P41594): CC1CC(C(=O)N2CCc3nc(C#Cc4cccc(F)c4)sc3C2)C1 (configuration not stated)
Result: 7.77

----------
target: Metabotropic glutamate receptor 5 (Homo sapiens, UniProt P41594); assay: Negative allosteric modulation of human mGlu5 receptor expressed in HEK293 cells assessed as inhibition of L-glutamate-induced activity after 1 hr by FLIPR assay relative to control; format: cell-based; parameters: concentration or dose not given beside the values; conditions: concentration not given here
Sequence (P41594 21-1212 limits assumed): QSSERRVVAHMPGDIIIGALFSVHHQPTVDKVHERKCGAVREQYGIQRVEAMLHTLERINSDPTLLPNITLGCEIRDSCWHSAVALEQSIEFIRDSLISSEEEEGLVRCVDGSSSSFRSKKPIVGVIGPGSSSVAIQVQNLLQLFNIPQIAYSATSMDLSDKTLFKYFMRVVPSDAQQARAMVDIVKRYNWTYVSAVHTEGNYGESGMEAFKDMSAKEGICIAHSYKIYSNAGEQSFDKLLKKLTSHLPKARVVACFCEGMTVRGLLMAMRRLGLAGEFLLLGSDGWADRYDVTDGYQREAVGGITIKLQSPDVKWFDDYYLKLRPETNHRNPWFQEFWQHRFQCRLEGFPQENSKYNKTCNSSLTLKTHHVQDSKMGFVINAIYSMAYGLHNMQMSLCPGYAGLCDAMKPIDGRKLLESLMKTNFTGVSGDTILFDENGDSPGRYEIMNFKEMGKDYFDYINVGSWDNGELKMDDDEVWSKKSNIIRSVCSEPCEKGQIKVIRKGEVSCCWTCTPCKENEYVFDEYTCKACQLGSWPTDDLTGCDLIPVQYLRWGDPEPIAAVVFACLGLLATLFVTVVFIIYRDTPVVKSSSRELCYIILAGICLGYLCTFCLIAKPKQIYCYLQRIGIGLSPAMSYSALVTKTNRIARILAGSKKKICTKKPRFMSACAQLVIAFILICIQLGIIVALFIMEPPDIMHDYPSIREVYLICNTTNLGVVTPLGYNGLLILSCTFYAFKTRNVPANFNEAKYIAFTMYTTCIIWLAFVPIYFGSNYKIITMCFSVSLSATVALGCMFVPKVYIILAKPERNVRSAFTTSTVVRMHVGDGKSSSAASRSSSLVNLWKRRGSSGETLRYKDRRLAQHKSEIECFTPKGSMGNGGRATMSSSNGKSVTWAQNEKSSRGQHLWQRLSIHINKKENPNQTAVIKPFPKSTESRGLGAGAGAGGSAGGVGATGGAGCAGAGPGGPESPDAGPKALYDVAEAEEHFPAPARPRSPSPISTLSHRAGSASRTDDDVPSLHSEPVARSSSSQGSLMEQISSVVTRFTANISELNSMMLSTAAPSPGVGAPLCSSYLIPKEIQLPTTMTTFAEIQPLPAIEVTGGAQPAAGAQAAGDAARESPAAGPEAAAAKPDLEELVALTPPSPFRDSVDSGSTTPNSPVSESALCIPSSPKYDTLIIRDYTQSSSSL
Entry flag: 1 if inhibition reaches 40%; 0 if it does not.

>  <molecule>
O=C1c2sc(C#Cc3ccccc3)nc2CN1C1CC1

>  <class-name>
1

$$$$
>  <molecule>
O=C(N1CCC(F)CC1)N1CCc2nc(C#Cc3ccccc3)sc2C1

>  <class-name>
0

$$$$
>  <molecule>
O=C(C1CC12CCC2)N1CCc2nc(C#Cc3ccccc3)sc2C1 (stereo unspecified)

>  <class-name>
0

$$$$

Task: Could you tell me if the measured inhibition of "O=C(C1CC(F)(F)C1)N1CCc2nc(C#Cc3ccccc3)sc2C1" reaches 40% or more?
Result: 1

Task: Could you tell me if the measured inhibition of "O=C(N1CCc2nc(C#Cc3ccccc3)sc2C1)N1CC(F)(F)C1" reaches 40% or more?
Result: 0

----------
target: Metabotropic glutamate receptor 5 (Homo sapiens); assay: Positive allosteric modulation of human mGlu5 receptor expressed in HEK293 cells assessed as potentiation of L-glutamate-induced activity after 1 hr by FLIPR assay; assay type: cell-based
Task for the reader: assign each of the following compounds its reported pEC50.
Answers are plain numbers, as −log10 of the molar value.

>  <compound>
COC1CC(C(=O)N2CCc3nc(C#Cc4ccccc4)sc3C2)C1 (stereo unspecified)

>  <pEC50>
6.19

$$$$

Please supply pEC50 for each of the following items, keeping them in order.
1. O=C1NCCc2nc(C#Cc3cccc(Cl)c3)sc21
2. O=C(C1CCCCC1)N1CCc2nc(C#Cc3ccccc3)sc2C1
3. CN1CCC(C(=O)N2CCc3nc(C#Cc4ccccc4)sc3C2)CC1

Result:
5.60
6.78
5.92

----------
biological target: Metabotropic glutamate receptor 5 (Homo sapiens, UniProt P41594); assay: Negative allosteric modulation of human mGlu5 receptor expressed in HEK293 cells assessed as inhibition of L-glutamate-induced activity after 1 hr by FLIPR assay relative to control; format: cell-based; set-up: concentration or dose not given beside the values; conditions: concentration not given here
Entry flag: rule met if inhibition reaches 20%; rule not met if it does not.

>  <molecule>
CCN1CCc2nc(C#Cc3cccc(F)c3)sc2C1

>  <target-or-system>
Metabotropic glutamate receptor 5 (Homo sapiens, UniProt P41594)

>  <class-name>
rule met

$$$$
>  <molecule>
CC1CC(C(=O)N2CCc3nc(C#Cc4cccc(F)c4)sc3C2)C1 (stereo unspecified)

>  <target-or-system>
Metabotropic glutamate receptor 5 (Homo sapiens, UniProt P41594)

>  <class-name>
rule not met

$$$$
>  <molecule>
O=C(C1CC(F)(F)C1)N1CCc2nc(C#Cc3ccc(F)cc3)sc2C1

>  <target-or-system>
Metabotropic glutamate receptor 5 (Homo sapiens, UniProt P41594)

>  <class-name>
rule not met

$$$$
>  <molecule>
CN1CCc2nc(C#Cc3cccc(F)c3)sc2C1

>  <target-or-system>
Metabotropic glutamate receptor 5 (Homo sapiens, UniProt P41594)

>  <class-name>
rule not met

$$$$
>  <molecule>
CC(C)S(=O)(=O)N1Cc2nc(C#Cc3ccccc3)sc2C1

>  <target-or-system>
Metabotropic glutamate receptor 5 (Homo sapiens, UniProt P41594)

>  <class-name>
rule met

$$$$

Task: Could you tell me if the measured inhibition of "COc1cccc(C(=O)N2CCc3nc(C#Cc4ccccc4)sc3C2)c1" reaches 20% or more?
Result: rule not met

Task: Could you tell me if the measured inhibition of "Cc1cccc(C(=O)N2CCc3nc(C#Cc4ccccc4)sc3C2)n1" reaches 20% or more?
Result: rule not met

Task: Could you tell me if the measured inhibition of O=C(C1CCCO1)N1CCc2nc(C#Cc3ccccc3)sc2C1 (stereo unspecified) reaches 20% or more?
Result: rule not met

Task: Could you tell me if the measured inhibition of CC1CCC(C(=O)N2CCc3nc(C#Cc4ccccc4)sc3C2)CC1 (stereo unspecified) reaches 20% or more?
Result: rule not met

Task: Could you tell me if the measured inhibition of "O=C(C1CC(F)(F)C1)N1CCc2nc(C#Cc3cccc(F)c3)sc2C1" reaches 20% or more?
Result: rule met

----------
target: Metabotropic glutamate receptor 5 (Homo sapiens); test: Positive allosteric modulation of human mGlu5 receptor expressed in HEK293 cells assessed as potentiation of L-glutamate-induced activity after 1 hr by FLIPR assay; assay type: cell-based
endpoint-name: pEC50
Numbers only, as −log10 of the molar value.

>  <compound>
Cc1cccc(C(=O)N2CCc3nc(C#Cc4ccccc4)sc3C2)c1

>  <target-or-system>
Metabotropic glutamate receptor 5 (Homo sapiens)

>  <endpoint-name>
pEC50

>  <reported-measurement>
7.00

$$$$
>  <compound>
O=C(c1cccc(C(F)(F)F)c1)N1CCc2nc(C#Cc3ccccc3)sc2C1

>  <target-or-system>
Metabotropic glutamate receptor 5 (Homo sapiens)

>  <endpoint-name>
pEC50

>  <reported-measurement>
7.96

$$$$
>  <compound>
O=S(=O)(N1CCCCC1)N1Cc2nc(C#Cc3ccccc3)sc2C1

>  <target-or-system>
Metabotropic glutamate receptor 5 (Homo sapiens)

>  <endpoint-name>
pEC50

>  <reported-measurement>
6.60

$$$$
>  <compound>
CN1CCc2nc(C#Cc3ccccc3)sc2C1=O

>  <target-or-system>
Metabotropic glutamate receptor 5 (Homo sapiens)

>  <endpoint-name>
pEC50

>  <reported-measurement>
8.62

$$$$
>  <compound>
CC(C)CCN1CCc2nc(C#Cc3ccccc3)sc2C1

>  <target-or-system>
Metabotropic glutamate receptor 5 (Homo sapiens)

>  <endpoint-name>
pEC50

>  <reported-measurement>
7.00

$$$$
>  <compound>
CC1CCC(C(=O)N2CCc3nc(C#Cc4ccccc4)sc3C2)CC1 (centres undefined)

>  <target-or-system>
Metabotropic glutamate receptor 5 (Homo sapiens)

>  <endpoint-name>
pEC50

>  <reported-measurement>
6.72

$$$$

For the next question, use this compound.
Task: Given the compound CC1CC1C(=O)N1CCc2nc(C#Cc3ccccc3)sc2C1 (centres undefined) , write its reported pEC50.
Result: 8.03

----------
Task for the reader: assign each of the following molecules its reported EC50.
molecular target: Metabotropic glutamate receptor 5 (Homo sapiens, UniProt P41594); assay: Positive allosteric modulation of human mGlu5 receptor expressed in HEK293 cells assessed as potentiation of L-glutamate-induced activity after 1 hr by FLIPR assay; format: cell-based

Solved entries:
>  <molecule>
O=C(C1CCCC1)N1CCc2nc(C#Cc3ccccc3)sc2C1

>  <EC50>
0.019 µM

$$$$
>  <molecule>
O=C(N1CCC(F)(F)CC1)N1CCc2nc(C#Cc3ccccc3)sc2C1

>  <EC50>
0.072 µM

$$$$
>  <molecule>
Fc1cccc(C#Cc2nc3c(s2)CN(C2CCCC2)CC3)c1

>  <EC50>
> 10 µM

$$$$
>  <molecule>
CC(C)S(=O)(=O)N1CCc2nc(C#Cc3ccccc3)sc2C1

>  <EC50>
> 10 µM

$$$$
>  <molecule>
O=C(C1CC12CCC2)N1CCc2nc(C#Cc3ccccc3)sc2C1 (stereo unspecified)

>  <EC50>
0.0039 µM

$$$$

For the next question, use this molecule.
Task: Given the molecule O=C(C1CC(F)C1)N1CCc2nc(C#Cc3ccccc3)sc2C1 (stereo unspecified) , write its reported EC50.
Result: 0.085 µM
